Below, each of the compounds is paired with its reported mass density value.
conditions: 278.15 K; 101.33 kPa; Liquid; Vibrating tube method
Numbers after ± are expanded uncertainties.
measured_endpoint: mass density

| compound | val |
| --- | --- |
| CCCC[n+]1ccn(C)c1.O=S(=O)([N-]S(=O)(=O)C(F)(F)F)C(F)(F)F | 1456.1 ± 15 kg/m3 |
| CCCCCCCCOS(=O)(=O)[O-].CCCCn1cc[n+](C)c1 [1-butyl-3-methylimidazolium octyl sulfate] | 1077.3 ± 8.1 kg/m3 |
| CCn1cc[n+](C)c1.O=S(=O)([N-]S(=O)(=O)C(F)(F)F)C(F)(F)F | 1539.1 ± 17 kg/m3 |
| CCCCCCCC[N+](C)(CCCCCCCC)CCCCCCCC.O=S(=O)([N-]S(=O)(=O)C(F)(F)F)C(F)(F)F | 1119.8 ± 8.8 kg/m3 |
| CCOS(=O)(=O)[O-].CCn1cc[n+](C)c1 [1-ethyl-3-methylimidazolium ethyl sulfate] | 1255.1 ± 11 kg/m3 |
| CCCC[N+](C)(C)C.O=S(=O)([N-]S(=O)(=O)C(F)(F)F)C(F)(F)F [butyltrimethylammonium bis(trifluoromethylsulfonyl)imide] | 1412.3 ± 14 kg/m3 |
